// provenance: ChEMBL document CHEMBL5528084

- test_name: Cmax in monkey at 50 mg/kg, po administered as solution
- Format: ADME, organism-based, Macaca mulatta
- particulars: rhesus monkey, in vivo
observed_property: Cmax (ng/mL)
Give a bare numeral; the unit ng/mL is implied.

input: Recorded Cmax for Cc1cccc(F)c1N1CCC(N2Cc3ccccc3N(Cc3ccccc3C(F)(F)F)C2=O)CC1 , please?
output: 3940

----------
- test_name: AUClast in monkey at 50 mg/kg, po administered as suspension
- Type: ADME, organism-based, Macaca mulatta
- particulars: rhesus monkey, in vivo
observed_property: AUC(0-t) (ng·h/mL)
Give a bare numeral; the unit ng·h/mL is implied.

input: Recorded AUC(0-t) for Cc1cccc(F)c1N1CCC(N2Cc3ccccc3N(Cc3ccccc3C(F)(F)F)C2=O)CC1 , please?
output: 3260
